Target: hGLP-1R (Homo sapiens, UniProt P43220)
Sequence (P43220 24-463): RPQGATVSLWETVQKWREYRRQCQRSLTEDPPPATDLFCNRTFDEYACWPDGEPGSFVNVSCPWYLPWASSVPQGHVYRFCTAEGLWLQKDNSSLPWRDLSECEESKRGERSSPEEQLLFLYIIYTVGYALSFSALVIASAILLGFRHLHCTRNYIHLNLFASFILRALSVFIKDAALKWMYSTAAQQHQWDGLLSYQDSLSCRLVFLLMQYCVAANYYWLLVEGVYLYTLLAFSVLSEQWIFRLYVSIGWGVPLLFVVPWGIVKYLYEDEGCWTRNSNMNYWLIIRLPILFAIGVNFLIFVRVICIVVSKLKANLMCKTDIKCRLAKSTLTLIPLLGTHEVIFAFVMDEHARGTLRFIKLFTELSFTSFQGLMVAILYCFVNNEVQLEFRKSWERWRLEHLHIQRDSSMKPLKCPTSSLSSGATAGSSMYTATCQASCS
Assay: cell-based or functional assay
Starred links: 1 amine or outer side, 2 acyl side, 3 side chain; linkers in the order of their positions; H or OH if unused. Non-standard residues stand in square brackets, D forms with d. Groups on a side chain read outwards from the residue. No end group written: not given here. *: point of attachment. C20 diacid = O=C(O)CCCCCCCCCCCCCCCCCCC(=O)*; αMePhe(2-F) = C[C@](N)(Cc1ccccc1F)C(=O)O; γGlu = O=C(O)[C@H](CCC(=O)[*:2])N[*:1]; AEEA = NCCOCCOCC(=O)O; Aib = CC(C)(N)C(=O)O
MEASURE NAME: cAMP Rel EC50 (in the presence of 1% HSA)
The reply must contain the numeric value and, after it, the unit.

Recorded cAMP Rel EC50 (in the presence of 1% HSA) (binder YXQGTFTSDFSXXLDKKAQXAFIEWLLEXGSSSGAPPPSGT (Aib, Orn, αMeL, acylated K, C-terminal amide; synthetic construct; SITE 2: note = 2-Aminoisobutyric Acid; SITE 12: note = L-ornithine; SITE 13: note = alpha-methyl-leucine; SITE 17: note = Lysine is chemically modified through conjugation of the epsilon-amino group of the Lysine side chain with (2-[2-(2-Amino-ethoxy)-ethoxy]-acetyl)-(gamma-Glu)) [Example 264] ): 688 nM

Recorded cAMP Rel EC50 (in the presence of 1% HSA) (binder Y[Aib]QGT[αMePhe(2-F)]TSDYSKLLDKIAQK([AEEA-γGlu-C20 diacid])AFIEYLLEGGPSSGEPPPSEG-NH2 [Example 295] ): 232 nM

Recorded cAMP Rel EC50 (in the presence of 1% HSA) (binder YXQGTXTSDXSILLDKKAQXAFIEYLEEGGPSSGAPPPSGEEE (non-natural residues (Aib, αMeF(2F), 4Pal); lipidated Lys; C-amide; synthetic construct; SITE 2: note = 2-Aminoisobutyric Acid; SITE 6: note = alpha-methyl-2-fluoro-L-phenylalanine; SITE 10: note = 3-(4-Pyridyl)-L-alanine; SITE 17: note = Lysine is chemically modified through conjugation of the epsilon-amino group of the Lysine side chain with (gamma-Glu)2-CO-(CH2)1) [Example 611] ): 146 nM

Recorded cAMP Rel EC50 (in the presence of 1% HSA) (binder YXQGTXTSDXXIXLDXKAQXEFIEXLIEGGPSSGAPPPSGSE (Aib, alpha-methyl residues, 4Pal, Orn, lipidated Lys, amide; synthetic construct; SITE 2: note = 2-Aminoisobutyric Acid; SITE 6: note = alpha-methyl-L-phenylalanine; SITE 10: note = 3-(4-Pyridyl)-L-alanine; SITE 11: note = alpha-methyl-L-serine; SITE 13: note = alpha-methyl-leucine; SITE 16: note = L-ornithine; SITE 17: note = Lysine is chemically modified th) [Example 1166] ): 65.6 nM

Recorded cAMP Rel EC50 (in the presence of 1% HSA) (binder YXQGTFTSDFSXXLDKKAQXAFIEYLLEAGPSSGHPPPSGH (non-natural residues; acylated Lys; C-terminal amide; synthetic construct; SITE 2: note = 2-Aminoisobutyric Acid; SITE 12: note = L-ornithine; SITE 13: note = alpha-methyl-leucine; SITE 17: note = Lysine is chemically modified through conjugation of the epsilon-amino group of the Lysine side chain with (2-[2-(2-Amino-ethoxy)-ethoxy]-acetyl)2-(gamma-Glu)) [Example 255] ): 272 nM

Recorded cAMP Rel EC50 (in the presence of 1% HSA) (binder YXQGTXTSDXXIXLDXKAQXEFIEXLVEGGPSSGEPPPESE (not fully specified; non-natural residues; AEEA-γGlu-diacid acylated Lys; C-terminal amide; synthetic construct; SITE 2: note = 2-Aminoisobutyric Acid; SITE 6: note = alpha-methyl-2-fluoro-L-phenylalanine; SITE 10: note = 3-(4-Pyridyl)-L-alanine; SITE 11: note = alpha-methyl-L-serine; SITE 13: note = alpha-methyl-leucine; SITE 16: note = L-ornithine; SITE 17: note = Lysine is chemically mo) [Example 1157] ): 57.5 nM

Recorded cAMP Rel EC50 (in the presence of 1% HSA) (binder YXQGTFTSDFSKXLDKKAQXAFIEYLLAGGPSSGEPPPGEG (synthetic construct; SITE 2: note = 2-Aminoisobutyric Acid; SITE 13: note = alpha-methyl-leucine; SITE 17: note = Lysine is chemically modified through conjugation of the epsilon-amino group of the Lysine side chain with (2-[2-(2-Amino-ethoxy)-ethoxy]-acetyl)-(gamma-Glu)-CO-(CH2) 18-CO2H; SITE 20: n) [Example 31] ): 737 nM

Recorded cAMP Rel EC50 (in the presence of 1% HSA) (binder YXQGTFTSDFSKXLDKKAQXAFIEYLLAGGPSSGAPPPSGS (synthetic construct; SITE 2: note = 2-Aminoisobutyric Acid; SITE 13: note = alpha-methyl-leucine; SITE 17: note = Lysine is chemically modified through conjugation of the epsilon-amino group of the Lysine side chain with (2-[2-(2-Amino-ethoxy)-ethoxy]-acetyl)-(gamma-Glu)-CO-(CH2) 18-CO2H; SITE 20: n) [Example 14] ): 232 nM

Recorded cAMP Rel EC50 (in the presence of 1% HSA) (binder YXQGTFTSDFSXXLDKKAQXAFIEYLLAGGPSSGEPPPSEG (synthetic construct; SITE 2: note = 2-Aminoisobutyric Acid; SITE 12: note = L-ornithine; SITE 13: note = alpha-methyl-leucine; SITE 17: note = Lysine is chemically modified through conjugation of the epsilon-amino group of the Lysine side chain with (2-[2-(2-Amino-ethoxy)-ethoxy]-acetyl)-(gamma-Glu)) [Example 29] ): 493 nM

Recorded cAMP Rel EC50 (in the presence of 1% HSA) (binder YXQGTFTSDFSKXLDKKAQXAFIEYLLEXGPSSGAPPPSGS (synthetic construct; SITE 2: note = 2-Aminoisobutyric Acid; SITE 13: note = alpha-methyl-leucine; SITE 17: note = Lysine is chemically modified through conjugation of the epsilon-amino group of the Lysine side chain with (2-[2-(2-Amino-ethoxy)-ethoxy]-acetyl)-(gamma-Glu)-CO-(CH2) 18-CO2H; SITE 20: n) [Example 45] ): 493 nM

Recorded cAMP Rel EC50 (in the presence of 1% HSA) (binder YXQGTXTSDXSIXLDXKAQXEFIEXLIEGGPSSGAPPPSGE (Aib, alpha-methyl residues, 4Pal, Orn, D-Glu, lipidated Lys, amide; synthetic construct; SITE 2: note = 2-Aminoisobutyric Acid; SITE 6: note = alpha-methyl-2-fluoro-L-phenylalanine; SITE 10: note = 3-(4-Pyridyl)-L-alanine; SITE 13: note = alpha-methyl-leucine; SITE 16: note = L-ornithine; SITE 17: note = Lysine is chemically modified through conjugation of the epsil) [Example 616] ): 28.9 nM

Recorded cAMP Rel EC50 (in the presence of 1% HSA) (binder YXQGTXTSDXSIXLDKKAQXXFIEYLSEGGPSSGEPPPSGSEE (non-natural residues; diacid-(γ-Glu)2 acylated Lys; C-terminal amide; synthetic construct; SITE 2: note = 2-Aminoisobutyric Acid; SITE 6: note = alpha-methyl-2-fluoro-L-phenylalanine; SITE 10: note = 3-(4-Pyridyl)-L-alanine; SITE 13: note = alpha-methyl-leucine; SITE 17: note = Lysine is chemically modified through conjugation of the epsilon-amino group of the Lysine) [Example 637] ): 76.2 nM

Recorded cAMP Rel EC50 (in the presence of 1% HSA) (binder YXQGTXTSDXXIXLDXKAQXEFIEXLIEGGPSSGAPPPSGE (Aib, αMeF, 4Pal, αMeS, αMeL, Orn, Me4Pal, αMeY; lipidated Lys; amide; synthetic construct; SITE 2: note = 2-Aminoisobutyric Acid; SITE 6: note = alpha-methyl-L-phenylalanine; SITE 10: note = 3-(4-Pyridyl)-L-alanine; SITE 11: note = alpha-methyl-L-serine; SITE 13: note = alpha-methyl-leucine; SITE 16: note = L-ornithine; SITE 17: note = Lysine is chemically modified th) [Example 1170] ): 50.2 nM

Recorded cAMP Rel EC50 (in the presence of 1% HSA) (binder YXQGTFTSDXSKXLDKKAQXAFIEYLIAXGESSGEPPPSGE (non-natural residues, AEEA-γGlu-diacid acylated Lys, C-terminal amide; synthetic construct; SITE 2: note = 2-Aminoisobutyric Acid; SITE 10: note = 3-(4-Pyridyl)-L-alanine; SITE 13: note = alpha-methyl-leucine; SITE 17: note = Lysine is chemically modified through conjugation of the epsilon-amino group of the Lysine side chain with (2-[2-(2-Amino-ethoxy)-ethoxy]-acetyl)) [Example 286] ): 925 nM

Recorded cAMP Rel EC50 (in the presence of 1% HSA) (binder YXQGTXTSDXXILLDXKAQXXFIEYLIEGGPSSGEPPPEGGEE (non-natural residues, acylated Lys ((γGlu)2-C18 diacid), C-terminal amide; synthetic construct; SITE 2: note = 2-Aminoisobutyric Acid; SITE 6: note = alpha-methyl-2-fluoro-L-phenylalanine; SITE 10: note = 3-(4-Pyridyl)-L-alanine; SITE 11: note = alpha-methyl-L-serine; SITE 16: note = L-ornithine; SITE 17: note = Lysine is chemically modified through conjugation of the epsi) [Example 605] ): 56.2 nM

Recorded cAMP Rel EC50 (in the presence of 1% HSA) (binder YXQGTFTSDFSKXLDKKAQXAFIEYLLEGGPSSGAPPPGGS (synthetic construct; SITE 2: note = 2-Aminoisobutyric Acid; SITE 13: note = alpha-methyl-leucine; SITE 17: note = Lysine is chemically modified through conjugation of the epsilon-amino group of the Lysine side chain with (2-[2-(2-Amino-ethoxy)-ethoxy]-acetyl)-(gamma-Glu)-CO-(CH2) 18-CO2H; SITE 20: n) [Example 18] ): 561 nM

Recorded cAMP Rel EC50 (in the presence of 1% HSA) (binder YXQGTXTSDXXIXLDXKAQXEFIEXLVEGGPSSGEPPPEGE (not fully specified; non-natural residues; AEEA-γGlu-C18 diacid on Lys; C-terminal amide; synthetic construct; SITE 2: note = 2-Aminoisobutyric Acid; SITE 6: note = alpha-methyl-2-fluoro-L-phenylalanine; SITE 10: note = 3-(4-Pyridyl)-L-alanine; SITE 11: note = alpha-methyl-L-serine; SITE 13: note = alpha-methyl-leucine; SITE 16: note = L-ornithine; SITE 17: note = Lysine is chemically mo) [Example 1159] ): 64.1 nM

Recorded cAMP Rel EC50 (in the presence of 1% HSA) (binder YXQGTFTSDFSXXLDKKAQXAFIEYLLEAGPSSGHPPPSGX (non-natural residues; acylated Lys C18 diacid; C-term amide; synthetic construct; SITE 2: note = 2-Aminoisobutyric Acid; SITE 12: note = L-ornithine; SITE 13: note = alpha-methyl-leucine; SITE 17: note = Lysine is chemically modified through conjugation of the epsilon-amino group of the Lysine side chain with (2-[2-(2-Amino-ethoxy)-ethoxy]-acetyl)2-(gamma-Glu)) [Example 256] ): 235 nM

Recorded cAMP Rel EC50 (in the presence of 1% HSA) (binder YXQGTXTSDXXIXLDXKAQXEFIEXLIEGGPSSGEPPPSGGGE (non-natural residues; AEEA-γGlu-diacid acylated Lys; C-terminal amide; synthetic construct; SITE 2: note = 2-Aminoisobutyric Acid; SITE 6: note = alpha-methyl-L-phenylalanine; SITE 10: note = 3-(4-Pyridyl)-L-alanine; SITE 11: note = alpha-methyl-L-serine; SITE 13: note = alpha-methyl-leucine; SITE 16: note = L-ornithine; SITE 17: note = Lysine is chemically modified th) [Example 1169] ): 80 nM

Recorded cAMP Rel EC50 (in the presence of 1% HSA) (binder YXQGTFTSDFSKXLDKKAQXQFIEYLLAGGPSSGEPPPSEG (synthetic construct; SITE 2: note = 2-Aminoisobutyric Acid; SITE 13: note = alpha-methyl-leucine; SITE 17: note = Lysine is chemically modified through conjugation of the epsilon-amino group of the Lysine side chain with (2-[2-(2-Amino-ethoxy)-ethoxy]-acetyl)-(gamma-Glu)-CO-(CH2) 16-CO2H; SITE 20: n) [Example 26] ): 623 nM

Recorded cAMP Rel EC50 (in the presence of 1% HSA) (binder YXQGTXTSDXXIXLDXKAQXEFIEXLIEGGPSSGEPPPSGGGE (non-natural residues, lysine acylation, C-terminal amide; synthetic construct; SITE 2: note = 2-Aminoisobutyric Acid; SITE 6: note = alpha-methyl-L-phenylalanine; SITE 10: note = 3-(4-Pyridyl)-L-alanine; SITE 11: note = alpha-methyl-L-serine; SITE 13: note = alpha-methyl-leucine; SITE 16: note = L-ornithine; SITE 17: note = Lysine is chemically modified th) [Example 1175] ): 60.7 nM

Recorded cAMP Rel EC50 (in the presence of 1% HSA) (binder YXQGTFTSDFSKXLDKKAQXAFIEYLLAGGPSSGEPPPSGS (synthetic construct; SITE 2: note = 2-Aminoisobutyric Acid; SITE 13: note = alpha-methyl-leucine; SITE 17: note = Lysine is chemically modified through conjugation of the epsilon-amino group of the Lysine side chain with (2-[2-(2-Amino-ethoxy)-ethoxy]-acetyl)-(gamma-Glu)-CO-(CH2) 18-CO2H; SITE 20: n) [Example 8] ): 603 nM

Recorded cAMP Rel EC50 (in the presence of 1% HSA) (binder YXQGTFTSDFSKXLDKKAQXAFIEYLLAGGPSSGEPPPSGE (synthetic construct; SITE 2: note = 2-Aminoisobutyric Acid; SITE 13: note = alpha-methyl-leucine; SITE 17: note = Lysine is chemically modified through conjugation of the epsilon-amino group of the Lysine side chain with (2-[2-(2-Amino-ethoxy)-ethoxy]-acetyl)-(gamma-Glu)-CO-(CH2) 16-CO2H; SITE 20: n) [Example 23] ): 308 nM

Recorded cAMP Rel EC50 (in the presence of 1% HSA) (binder YXQGTFTSDXSKXLDKKAQXAFIEYLIEXGESSGEPPPSGE (Aib, 4Pal, alpha-methyl-Leu, lipidated Lys, C-terminal amide; synthetic construct; SITE 2: note = 2-Aminoisobutyric Acid; SITE 10: note = 3-(4-Pyridyl)-L-alanine; SITE 13: note = alpha-methyl-leucine; SITE 17: note = Lysine is chemically modified through conjugation of the epsilon-amino group of the Lysine side chain with (2-[2-(2-Amino-ethoxy)-ethoxy]-acetyl)) [Example 281] ): 295 nM
